- measured.target: T1, human CD8A-Fc (recombinant human CD8 alpha fused to Fc fragment of human IgG1) (human, UniProt P01732 22-182, limits assumed)
- T1 construct: SPR ligand, captured by goat anti-human Fc; also called hCD8A-Fc; recombinant CD8 alpha; not shown: linker with flag (and polyhistidine) tag and Fc fragment of human IgG1; depends on which of the two constructs was used
- T1 sequence (P01732 22-182 limits assumed): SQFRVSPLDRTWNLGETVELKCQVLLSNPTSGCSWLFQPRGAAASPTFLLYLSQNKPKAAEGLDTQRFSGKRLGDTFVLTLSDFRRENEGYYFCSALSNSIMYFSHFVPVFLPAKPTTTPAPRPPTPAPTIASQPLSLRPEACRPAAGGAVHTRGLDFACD
- assay.remarks: SPR (ProteOn), captured hCD8A-Fc, heterogeneous ligand fit, lower affinity population; lower affinity population, heterogeneous ligand fit
- Protocol: Human CD8A-Fc was then captured at five surface densities ranging from 200 to 1200 response units, leaving the 6th channel as empty channel control for GAH-Fc IgG surface. Binding was measured by flowing five different concentrations of anti-CD8A FN3 domains (1 μM diluted in a 3-fold dilution series) as analytes simultaneously in the horizontal orientation over the captured hCD8A-Fc surfaces, with a sixth analyte channel containing only running buffer PBST. […]
pKd: −log10 of the molar value.
measured.endpoint: pKd

[[record]]
binder = "P282DR9P1359_F5 (designed binder, FN3 domain (Centyrin); purified as His-tagged protein, tag not in the entry) LPAPKNLVVSRVTEDSARLSWTAPDAAFDSFQIAYPEWPPPGEAIVLTVPGSERSYDLTGLKPGTEYFVIIQGVKGGVESWPLSAIFTT"
measured_value = 8.18

